ASSAYED_SYSTEM: 5-hydroxytryptamine receptor 1A (Rattus norvegicus, UniProt P19327); further: in other assays of this panel Not Active means under 50% inhibition at 10 µM
Sequence (P19327 whole entry): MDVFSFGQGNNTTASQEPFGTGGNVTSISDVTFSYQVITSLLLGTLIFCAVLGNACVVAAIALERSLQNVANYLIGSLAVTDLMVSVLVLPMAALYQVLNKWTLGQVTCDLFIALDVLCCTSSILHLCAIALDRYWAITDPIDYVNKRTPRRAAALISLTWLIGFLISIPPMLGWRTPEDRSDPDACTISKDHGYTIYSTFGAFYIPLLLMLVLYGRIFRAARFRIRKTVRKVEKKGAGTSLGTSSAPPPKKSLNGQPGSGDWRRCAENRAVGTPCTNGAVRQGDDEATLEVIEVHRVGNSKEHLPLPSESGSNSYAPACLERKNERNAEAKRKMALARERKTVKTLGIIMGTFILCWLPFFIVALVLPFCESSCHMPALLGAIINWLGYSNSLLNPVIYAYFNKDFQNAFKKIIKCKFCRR
Assay type: cell membranes, Membrane
CONDITIONS: cho-k1

MOLECULE: COc1cccc2c1C(=O)c1c(O)c3c(c(O)c1C2=O)C[C@@](O)(C(=O)CO)C[C@@H]3O[C@H]1C[C@H](N)[C@@H](O)[C@H](C)O1 [EPIRUBICIN]
ASSAYED_SYSTEM: 5-hydroxytryptamine receptor 1A (Rattus norvegicus, UniProt P19327); further: in other assays of this panel Not Active means under 50% inhibition at 10 µM
IC50: Not Active
--
MOLECULE: N[C@H](CSC(=S)NCc1ccccc1)C(=O)O
ASSAYED_SYSTEM: 5-hydroxytryptamine receptor 1A (Rattus norvegicus, UniProt P19327); further: in other assays of this panel Not Active means under 50% inhibition at 10 µM
IC50: Not Active
--
MOLECULE: CCCC(CCC)C(=O)O
ASSAYED_SYSTEM: 5-hydroxytryptamine receptor 1A (Rattus norvegicus, UniProt P19327); further: in other assays of this panel Not Active means under 50% inhibition at 10 µM
IC50: Not Active
